Consider the following binders and their measured pKd readings.
Target: T1, Bre1-LR (Bre1 residues 227–700, LBD and RING domains), 6× histidine tag (budding yeast, UniProt Q07457 227-700)
T1 construct: two Bre1 polypeptides form the dimeric coiled-coils of the LBD in the crystal structure; also called WT; source: E. coli BL21 Rosetta (DE3), purified (Ni-NTA, heparin, gel filtration)
T1 sequence (looked up): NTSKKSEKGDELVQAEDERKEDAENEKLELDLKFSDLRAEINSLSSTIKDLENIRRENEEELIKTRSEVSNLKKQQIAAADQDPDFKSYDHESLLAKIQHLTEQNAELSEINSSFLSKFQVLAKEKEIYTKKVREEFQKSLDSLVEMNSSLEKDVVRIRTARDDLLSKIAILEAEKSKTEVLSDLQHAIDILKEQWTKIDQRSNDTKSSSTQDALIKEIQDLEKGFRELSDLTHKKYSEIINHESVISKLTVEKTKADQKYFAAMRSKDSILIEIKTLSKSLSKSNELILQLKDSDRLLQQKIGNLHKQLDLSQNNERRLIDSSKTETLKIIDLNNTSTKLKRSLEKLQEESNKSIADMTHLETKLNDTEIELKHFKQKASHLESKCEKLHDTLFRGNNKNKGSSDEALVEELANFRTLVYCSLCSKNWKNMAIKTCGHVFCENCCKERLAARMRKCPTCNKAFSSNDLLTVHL
Test: ITC; Lge1-CT (50–60 μM) injected into Bre1-LR (15 μM); 25°C, 20 mM TRIS (pH 7.5), 200 mM sodium chloride
Conditions: both partners purified
As a rule, pKd stands for the negative log10 of the concentration, concentration in M.

binder: Lge1-CT E301K/R305E (domain or fragment, budding yeast, UniProt Q02796 261-332, looked up, Lge1, budding yeast, residues 261-332; source: E. coli BL21 Rosetta (DE3): cleared cell extract on chitin resin (pull-down); purified (chitin, heparin, gel filtration) for ITC and SPR) KNVKKTNNTESECEKAREVFKESDSIDSALEELNLKINSNKLELELLNNQCDKHALNIQLTQEKLDSLLLMQ
pKd: 7.22

binder: Lge1-CT E303K (domain or fragment, budding yeast, UniProt Q02796 261-332, looked up, Lge1, budding yeast, residues 261-332; source: E. coli BL21 Rosetta (DE3): cleared cell extract on chitin resin (pull-down); purified (chitin, heparin, gel filtration) for ITC and SPR) KNVKKTNNTESECEKAREVFKESDSIDSALEELNLKINSNELKLRLLNNQCDKHALNIQLTQEKLDSLLLMQ
pKd: 6.88

binder: Lge1-CT (Lge1 residues 261–332), intein-chitin binding domain (CBD) tag construct (domain or fragment, budding yeast, UniProt Q02796 261-332, looked up, Lge1, budding yeast, residues 261-332; residues 268–331 resolved in the electron density; the intein-CBD tag is named on the protein in the pull-down; also called intein-CBD-fused Lge1-CT; intein-CBD-tagged Lge1-CT; source: E. coli BL21 Rosetta (DE3): cleared cell extract on chitin resin (pull-down); purified (chitin, heparin, gel filtration) for ITC and SPR; co-purified with Bre1-LR for the …) KNVKKTNNTESECEKAREVFKESDSIDSALEELNLKINSNELELRLLNNQCDKHALNIQLTQEKLDSLLLMQ
pKd: 7.61

query: Which pKd value belongs to Lge1-CT L320N (domain or fragment, budding yeast, UniProt Q02796 261-332, looked up, Lge1, budding yeast, residues 261-332; source: E. coli BL21 Rosetta (DE3): cleared cell extract on chitin resin (pull-down); purified (chitin, heparin, gel filtration) for ITC and SPR) KNVKKTNNTESECEKAREVFKESDSIDSALEELNLKINSNELELRLLNNQCDKHALNIQNTQEKLDSLLLMQ ?
result: 7.63

Reference source for all entries: paper PMC12802937
